Tested on: SARS-CoV-2 K1734/δ
measurement.notes: microbe, parasite or virus in culture
Format: cell-based
experimental.setup: read-out: EC50 against K1734/δ
pEC50: −log10 of the molar value.
result.type: pEC50

[[record]]
input_smiles = "CC(C)(C)[C@H](NC(=O)C(F)(F)F)C(=O)N1C[C@H]2[C@@H]([C@H]1C(=S)N[C@@H](C[C@@H]1CCNC1=O)C(=O)c1nc3c(F)cccc3s1)C2(C)C"
tested_on = "SARS-CoV-2 K1734/δ"
result_type = "pEC50"
recorded_result = 6.56


###

System: SARS-CoV-2 5356/κ
measurement.notes: microbe, parasite or virus in culture
Type: cell-based
experimental.setup: read-out: EC50 against 5356/k
pEC50: −log10 of the molar value.
result.type: pEC50

[[record]]
molecule = "CC(C)(C)[C@H](NC(=O)C(F)(F)F)C(=O)N1C[C@H]2[C@@H]([C@H]1C(=S)N[C@@H](C[C@@H]1CCNC1=O)C(=O)c1nc3c(F)cccc3s1)C2(C)C [TKB248]"
tested_on = "SARS-CoV-2 5356/κ"
recorded_result = 6.74

